- Assayed system: Focal adhesion kinase 1 (Homo sapiens) (UniProt Q05397)
- Sequence (Q05397 whole entry, looked up): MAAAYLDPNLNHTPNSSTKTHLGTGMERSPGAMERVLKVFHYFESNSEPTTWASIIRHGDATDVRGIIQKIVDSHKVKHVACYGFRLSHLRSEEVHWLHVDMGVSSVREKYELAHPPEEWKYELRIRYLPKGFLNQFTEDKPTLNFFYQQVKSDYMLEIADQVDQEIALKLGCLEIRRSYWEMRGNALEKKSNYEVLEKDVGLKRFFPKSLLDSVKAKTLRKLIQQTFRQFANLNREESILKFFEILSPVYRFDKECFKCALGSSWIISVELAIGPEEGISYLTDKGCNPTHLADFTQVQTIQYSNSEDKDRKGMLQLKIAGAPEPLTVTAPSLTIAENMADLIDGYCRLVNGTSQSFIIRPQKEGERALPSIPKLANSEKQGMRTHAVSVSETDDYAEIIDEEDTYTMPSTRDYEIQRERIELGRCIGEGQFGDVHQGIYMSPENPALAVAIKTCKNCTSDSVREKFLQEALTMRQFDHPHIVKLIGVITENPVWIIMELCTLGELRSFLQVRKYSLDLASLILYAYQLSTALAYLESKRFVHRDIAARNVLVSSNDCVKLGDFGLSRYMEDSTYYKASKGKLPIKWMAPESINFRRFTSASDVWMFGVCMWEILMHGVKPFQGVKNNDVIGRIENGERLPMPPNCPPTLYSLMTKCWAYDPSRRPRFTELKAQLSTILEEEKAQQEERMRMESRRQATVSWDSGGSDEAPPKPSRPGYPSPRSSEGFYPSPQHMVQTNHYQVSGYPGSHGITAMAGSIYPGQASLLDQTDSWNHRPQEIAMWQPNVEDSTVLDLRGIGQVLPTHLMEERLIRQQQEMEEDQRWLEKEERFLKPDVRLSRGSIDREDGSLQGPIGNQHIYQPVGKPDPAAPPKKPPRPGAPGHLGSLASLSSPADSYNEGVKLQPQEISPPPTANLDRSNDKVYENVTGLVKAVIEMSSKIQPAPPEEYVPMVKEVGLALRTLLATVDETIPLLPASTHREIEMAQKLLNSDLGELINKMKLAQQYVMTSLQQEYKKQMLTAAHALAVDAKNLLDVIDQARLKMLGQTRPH
- Measurement protocol: small-molecule microarray binders of FAK, primary screen, biochemical, 635/667 nm fluorescence, BSA, DTT (AID 1130);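 also: composite of spot emission at 667 nm and signal to noise over triplicate slides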
- Setup conditions: PTK2 binding, 635 nm fluorescence, higher = more signal
Assign composite z-score to each entry below.
Give bare numbers.

Req: // fetch Focal adhesion kinase 1 (Homo sapiens) (UniProt Q05397) composite z-score for CCOC(=O)[C@H](Cc1ccccc1)NC(=O)CCC1CC(OC(=O)NCc2ccc3c(c2)OCO3)CC2(CCCC(COC(=O)NCC3CCCCC3)O2)O1 (some centres undefined)
Resp: 0.188

// each listed molecule needs a value for composite z-score
1. CCc1cc2c(nc1CC)CCN(CCC(C)=NO[C@@H](C)c1cc(-c3c(C)cc(C)cc3C)no1)C2
2. CCCNC(=O)OC[C@H]1O[C@H](CCON=C2[C@H]3CCn4c(=O)n(-c5ccccc5)c(=O)n4[C@H]3[C@H](O)[C@@H]3O[C@H]23)C=C[C@@H]1Oc1ccc(OC)cc1
3. C[C@@H]1C=CCC(=O)OC[C@H](C)C(=O)OC[C@H]2O[C@H]1C=C[C@H]2O

Resp:
1: -0.0159; 2: 0.172; 3: -0.174

* * *

- Measurement protocol: binders from COS7 lysate, DM2A8 probe, primary screen, torsin A project, cell lysate, small-molecule microarray, fluorescence 635/667 (AID 1065)
- Setup conditions: higher = more signal, COS7 lysate expressing mutant human TOR1A
Assay readout: composite z-score
Numbers only.

Req: I am curious: what composite z-score value has been reported for `CC(C)[C@@H](OCc1ccccc1)[C@H](C)C=NO[C@H](C)c1cn([C@H](CO)Cc2ccccc2)nn1` ?
Resp: 0.227

Req: Would you mind doing `O=C(NN=C1C[C@@H](O)[C@@H](O)[C@@H]2[C@@H]3C(=O)N(c4cccc(Oc5ccccc5)c4)C(=O)[C@@H]3CC[C@H]12)OCc1ccccc1` as well?
Resp: 0.249

Req: Would you mind doing `O=C1[C@H]2[C@H]3[C@H](O)[C@H](O)CC(=NO[C@@H]4O[C@H](CO)[C@@H](O)[C@H](O)[C@H]4O)[C@@H]3CC[C@H]2C(=O)N1Cc1ccc2c(c1)OCO2` as well?
Resp: -0.271

Req: Would you mind doing O=C1CCCC2OC12C(O)CCc1ccccc1 (configuration not stated) as well?
Resp: 0.475

Req: Would you mind doing `COc1ccc([Si](C)(C)[C@@H]2[C@@H](CC(=O)N3CCC[C@H]3CO)O[C@]3(C(=O)N(Cc4cccc(N5CCC5=O)c4)c4ccccc43)[C@H]2C)cc1` as well?
Resp: 0.461

// each listed molecule needs a value for composite z-score
1. CC(=O)O[C@H]1C2=C(C(=O)[C@@H]3O[C@@H]31)[C@H]1C(C)O[C@@H]2[C@@]23C(=O)[C@@H]4O[C@@H]4[C@@H](O)C2=CO[C@H](C)[C@@H]13 (some centres not stated)
2. O=C1[C@H]2[C@H]3[C@H](O)[C@H](O)CC(=NOCc4ccccc4)[C@H]3CC[C@H]2C(=O)N1c1ccc(F)cc1F

Resp:
0.16
-0.0076

* * *

- Assayed system: NADPH oxidase 4 (Homo sapiens)
- Measurement protocol: NOX4-dependent H2O2 signal modulators, primary screen, NOX inhibitor project, cell-based, HEK293-NOX4, tetracycline-induced, Amplex Red fluorescence (AID 1160)
- Setup conditions: 45 min, higher = more signal, called active from +8 up or from −8 down
Measured z-score determines class: lower bin: < 0.07; middle bin: ≥ 0.07 and < 0.7; upper bin: ≥ 0.7

# example entries with known answers
Req: Category of `O=C1[C@H]2[C@H]3[C@H](O)[C@H](O)CC(=NOC[C@@H](O)COCc4ccco4)[C@H]3CC[C@H]2C(=O)N1c1cccc(Oc2ccccc2)c1` :
Resp: upper bin

Req: Would you mind doing `O=C(NN=C1C[C@@H](O)[C@@H](O)[C@@H]2[C@@H]3C(=O)N(c4ccc(F)cc4F)C(=O)[C@@H]3CC[C@@H]12)OCc1ccccc1` as well?
Resp: upper bin

Req: Would you mind doing O[C@@H](Cc1ccccc1)[C@H]1C2C=CCCC(c3ccccc3)=C2CN1Cc1cccc(Cl)c1 (some centres undefined) as well?
Resp: lower bin

Req: Would you mind doing `CN1C(=O)[C@@]2(CCC(=O)OC(C)(C)C)N=C(c3ccc(OCCCO)cc3)O[C@H]2c2ccccc21` as well?
Resp: middle bin

---
Req: Category of `COC(=O)[C@H](C)NC(=O)[C@@H](C)CO` :
Resp: lower bin

Req: Would you mind doing O=C1CCCC=C1C(O)CCOCc1ccccc1 (centres undefined) as well?
Resp: middle bin

Req: Would you mind doing C=CCC(OC(C)=O)[C@@H]1[C@@H](N(Cc2cc3ccccc3o2)C(=O)Cc2ccc(F)cc2)c2cc(OCCCO)ccc2N1C(=O)Cc1ccc(OC)cc1 (some centres undefined) as well?
Resp: upper bin

Req: Would you mind doing `C[C@@H](c1ccccc1)N1C(=O)[C@H]2[C@H]3[C@H](O)C=CC(=O)[C@@H]3CC[C@H]2C1=O` as well?
Resp: lower bin

Req: Would you mind doing `COc1ccc([Si](C)(C)[C@H]2[C@H](CC(=O)N3CCC[C@H]3CO)O[C@@]3(C(=O)N(Cc4cccc(N5C(=O)COc6ccccc65)c4)c4ccccc43)[C@@H]2C)cc1` as well?
Resp: upper bin
